# target or test system: Metabotropic glutamate receptor 5 (Homo sapiens, UniProt P41594)
# Sequence (P41594 whole entry): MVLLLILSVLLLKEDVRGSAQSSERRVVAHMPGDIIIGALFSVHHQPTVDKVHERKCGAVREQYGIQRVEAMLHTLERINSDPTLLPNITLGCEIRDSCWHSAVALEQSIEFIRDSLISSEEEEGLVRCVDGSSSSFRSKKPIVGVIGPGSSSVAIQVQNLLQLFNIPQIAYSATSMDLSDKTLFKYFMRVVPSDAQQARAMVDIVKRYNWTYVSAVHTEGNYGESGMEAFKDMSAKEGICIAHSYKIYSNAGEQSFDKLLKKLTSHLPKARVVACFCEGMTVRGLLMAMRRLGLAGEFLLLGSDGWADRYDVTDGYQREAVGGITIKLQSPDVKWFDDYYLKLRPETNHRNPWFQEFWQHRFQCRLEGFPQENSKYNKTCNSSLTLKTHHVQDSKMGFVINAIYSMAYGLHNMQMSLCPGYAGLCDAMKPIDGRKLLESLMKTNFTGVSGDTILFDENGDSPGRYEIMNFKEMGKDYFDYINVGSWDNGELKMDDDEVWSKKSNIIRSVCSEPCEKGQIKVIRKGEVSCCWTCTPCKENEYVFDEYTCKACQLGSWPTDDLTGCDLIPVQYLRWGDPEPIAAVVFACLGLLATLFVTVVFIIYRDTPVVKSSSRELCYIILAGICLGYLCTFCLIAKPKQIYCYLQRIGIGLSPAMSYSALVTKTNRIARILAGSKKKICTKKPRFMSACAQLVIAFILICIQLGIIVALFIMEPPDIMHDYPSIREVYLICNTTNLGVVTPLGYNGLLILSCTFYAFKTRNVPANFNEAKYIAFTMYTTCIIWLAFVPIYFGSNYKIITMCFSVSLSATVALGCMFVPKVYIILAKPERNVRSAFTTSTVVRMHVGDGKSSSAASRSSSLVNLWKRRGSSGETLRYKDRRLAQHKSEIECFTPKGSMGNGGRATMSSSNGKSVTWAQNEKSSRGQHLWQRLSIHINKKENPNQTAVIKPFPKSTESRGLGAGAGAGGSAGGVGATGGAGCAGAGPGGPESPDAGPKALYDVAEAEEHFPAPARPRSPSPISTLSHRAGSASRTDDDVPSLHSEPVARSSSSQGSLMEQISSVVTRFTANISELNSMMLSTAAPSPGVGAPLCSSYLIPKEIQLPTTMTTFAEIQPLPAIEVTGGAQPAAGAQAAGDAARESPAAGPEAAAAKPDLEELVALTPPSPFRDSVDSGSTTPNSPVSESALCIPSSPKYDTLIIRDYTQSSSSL
# test name: Antagonist activity at mGluR5 (unknown origin) expressed in HEK293T cells assessed as inhibition of L-Glu-induced MAPK phosphorylation preincubated for 30 mins followed by agonist stimulation for 10 mins by Western blot analysis
pIC50: −log10 of the molar value.
# pIC50 per entry
test readout: pIC50

COc1cc(CN2CCN(c3ccccc3OC)CC2)ccc1OCc1cn(CCOCCOCCOCCNC(=O)COc2cccc(C#Cc3csc(C)n3)c2)nn1    5.92
CCCN(CCc1ccc(NC(=O)CCc2cn(CCCCCCNC(=O)COc3cncc(C#Cc4csc(C)n4)c3)nn2)cc1)C1CCc2c(O)cccc2C1 (configuration not stated)    5.80
COc1cc(CN2CCN(c3ccccc3OC)CC2)ccc1OCc1cn(CCCCCCCCN(C)CCCCCNC(=O)COc2cccc(C#Cc3csc(C)n3)c2)nn1    6.62
COc1cc(CN2CCN(c3ccccc3OC)CC2)ccc1OCc1cn(CCCCCCCCCCN(C)CCCCCNC(=O)COc2cccc(C#Cc3csc(C)n3)c2)nn1    6.51
COc1cc(CN2CCN(c3ccccc3OC)CC2)ccc1OCc1cn(CCOCCOCCOCCOCCOCCNC(=O)COc2cccc(C#Cc3csc(C)n3)c2)nn1    6.05
COc1cc(CN2CCN(c3ccccc3OC)CC2)ccc1OCc1cn(CCCCCCCCCCN(C)CCCCCNC(=O)COc2cncc(C#Cc3csc(C)n3)c2)nn1    6.35
Cc1nc(C#Cc2cncc(OCC(=O)NCCCCCN(C)CCCCCCCCN=[N+]=[N-])c2)cs1    5.59
